Where these numbers come from: patent US20210045385A1

test system: galium (catchweed bedstraw, Galium aparine); test: Test A postemergence, visual plant response rating; assay type: in vivo; settings: 500 g ai/ha, postemergence; 0 is no effect, 100 is complete control
Binary classification by Galium plant response rating (0 to 100 scale), with 90 as an inclusive lower bound for T; all other cases are F.

> print(dat)
                                    compound  discrete.label
 1  CO/N=C(\c1ccc(F)cc1C)c1c(O)c(C)nn(C)c1=O               F
 2  CO/N=C(/c1c(O)c(Cl)nn(C)c1=O)c1cccc2ccccc12               T
 3  CO/N=C(/c1ccccc1C(C)C)c1c(O)c(C)nn(C)c1=O               F
 4  CO/N=C(\c1c(O)c(C)nn(C)c1=O)c1cc(Br)cc2ccccc12               T
 5  CON=C(c1c(O)c(C)nn(C)c1=O)c1ccc(Cl)c2ccccc12 [Compound 40]               T
 6  CCO/N=C(/c1c(O)c(C)nn(C)c1=O)c1cc(Br)cc2ccccc12               T
 7  CON=C(c1cccc(C(F)(F)F)c1Cl)c1c(O)c(C)nn(C)c1=O [Compound 103]               F
 8  CON=C(c1cccc(Cl)c1)c1c(O)c(C)n[nH]c1=O (mixture of isomers)               F
 9    CON=C(c1ccc(F)cc1C)c1c(O)c(C)nn(C)c1=O               F
10  CO/N=C(/c1c(O)c(C)nn(C)c1=O)c1ccc(OC)c2ccccc12               F
11  CO/N=C(\c1cccc(C)c1)c1c(O)c(C2CC2)nn(C)c1=O               F
12  CON=C(c1c(O)c(C)nn(C)c1=O)c1csc2ccccc12 (single isomer, unassigned)               F
13  CON=C(c1cc(C)cs1)c1c(O)c(C)nn(C)c1=O (mixture of isomers)               F

====

tested on: corn (Zea mays); test: Test A postemergence, visual plant response rating; type: in vivo; settings: 500 g ai/ha, postemergence; 0 is no effect, 100 is complete control
The following compounds are listed with their measured Corn plant response rating (0 to 100 scale) values.
measurement_type: Corn plant response rating (0 to 100 scale)

> print(dat)
                                    compound  measured
 1  CON=C(c1c(OC(C)=O)c(C)nn(C)c1=O)c1cccc2ccccc12 [Compound 48]        80
 2  CO/N=C(/c1c(O)c(C)nn(C)c1=O)c1cccc2ccccc12 [Compound 31]        50
 3  CCc1cccc(/C(=N\OC)c2c(O)c(C)nn(C)c2=O)c1 [Compound 68]         0
 4  CCO/N=C(/c1cccc(Cl)c1)c1c(O)c(C)nn(C)c1=O [Compound 9]        10
 5  CON=C(c1ccc(C)o1)c1c(O)c(C)nn(C)c1=O [Compound 141]         0
 6  CCO/N=C(/c1c(O)c(Cl)nn(C)c1=O)c1cccc2ccccc12 [Compound 147]        30
 7  CCO/N=C(/c1ccc(C)cc1)c1c(O)c(C)nn(C)c1=O [Compound 16]         0
 8  CON=C(c1c(O)c(C)nn(C)c1=O)c1cccc2ccc(Cl)cc12 [Compound 110]        30
 9  CCO/N=C(/c1c(O)c(C)nn(C)c1=O)c1ccc(F)c2ccccc12 [Compound 84]        30
10  CON=C(c1c(O)c(C)nn(C)c1=O)c1cccc2cc(F)ccc12 [Compound 119]        40
11  Cc1ccccc1/C(=N\OC(C)C)c1c(O)c(C)nn(C)c1=O [Compound 20]         0
12  CO/N=C(\c1ccc(C)o1)c1c(O)c(C)nn(C)c1=O [Compound 53]        30
13  CO/N=C(\c1cccc(C)c1)c1c(O)c(C2CC2)nn(C)c1=O [Compound 27]         0
14  CON=C(c1c(O)c(C)nn(C)c1=O)c1cccc2ccsc12 (single isomer, unassigned) [Compound 47]        20
15  CO/N=C(\c1cscc1C)c1c(O)c(C)nn(C)c1=O [Compound 52]         0
16  CON=C(c1c(O)c(C)nn(C)c1=O)c1ccc(C)c2ccccc12 [Compound 131]        20
17  CON=C(c1cc(Cl)ccc1C(F)(F)F)c1c(O)c(C)nn(C)c1=O [Compound 97]        40
18  CON=C(c1c(Cl)ccc(C)c1F)c1c(O)c(C)nn(C)c1=O [Compound 101]         0
19  C=CCc1ccccc1C(=NOC)c1c(O)c(C)nn(C)c1=O [Compound 121]        10
